- testedTarget: T1, rat LDLa-linker protein (ratRXFP2-LDLa-linker(20-88)) (Rattus norvegicus, UniProt Q5ECL0)
- T1 construct: relaxin family peptide receptor 2 (RXFP2), rat, LDLa module and linker, residues 20-88; Expressed as LDLa-linker, enterokinase site, rat Fc, 8xHis; The Biacore methods say only 'LDLa-linker protein'; also called rat LDLa-linker domain; source: Expi293, transfected, purified (Histrap excel, SEC); enterokinase digestion, Hispur Ni resin, Superdex 200; not shown: rat Fc, C-terminal, cleaved; 8xHis, …
- T1 sequence (Q5ECL0 entry or part of it): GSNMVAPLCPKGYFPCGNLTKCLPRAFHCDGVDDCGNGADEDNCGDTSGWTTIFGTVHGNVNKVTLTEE
- assayComment: SPR; Biacore S200; goat anti-rat Fc gamma immobilised on a Series S CM5 chip, purified recombinant rat anti-RXFP2 antibodies captured at 5 µg/mL; rat or human LDLa-linker protein flowed as analyte at 20, 10, 5, 2.5, 1.75 and 0 nM; 1:1 fit model
- testSettings: both partners purified
Record form. Attribute: Kd. Fill in for each entry.

{"binder": "RXFP2 mAb 3F1 (antibody, V domains shown, heavy chain variable domain; rat IgG2b heavy chain constant region (rat IgG2b backbone, in-house construct); Recombinant in a rat IgG2b backbone; found as a mouse hybridoma clone; source: Expi293, transfected, purified (Protein G)) VH: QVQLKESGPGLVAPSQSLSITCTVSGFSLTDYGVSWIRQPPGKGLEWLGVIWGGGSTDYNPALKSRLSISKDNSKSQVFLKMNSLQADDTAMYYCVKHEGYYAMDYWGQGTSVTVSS VL: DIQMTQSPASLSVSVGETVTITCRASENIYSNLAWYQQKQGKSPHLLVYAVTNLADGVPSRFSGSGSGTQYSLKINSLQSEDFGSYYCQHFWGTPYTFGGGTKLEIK", "measuredEndpoint": "Kd", "endpointResult": "1.24 nM"}
{"binder": "RXFP2 mAb 3F3 (antibody, V domains shown, heavy chain variable domain; rat IgG2b heavy chain constant region (rat IgG2b backbone, in-house construct); Recombinant in a rat IgG2b backbone; found as a mouse hybridoma clone; source: Expi293, transfected, purified (Protein G)) VH: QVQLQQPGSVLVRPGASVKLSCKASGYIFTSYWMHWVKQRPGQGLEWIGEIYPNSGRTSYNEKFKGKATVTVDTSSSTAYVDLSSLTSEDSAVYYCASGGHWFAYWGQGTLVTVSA VL: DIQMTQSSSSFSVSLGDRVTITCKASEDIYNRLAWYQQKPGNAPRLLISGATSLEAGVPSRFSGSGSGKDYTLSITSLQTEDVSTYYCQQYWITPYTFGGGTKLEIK", "measuredEndpoint": "Kd", "endpointResult": "11.4 nM"}
{"binder": "RXFP2 mAb 4H5 (antibody, V domains shown, heavy chain variable domain; rat IgG2b heavy chain constant region (rat IgG2b backbone, in-house construct); Recombinant in a rat IgG2b backbone; found as a mouse hybridoma clone; source: Expi293, transfected, purified (Protein G)) VH: QVQLKQSGPGLVQPSQSLSITCTVSGFSLTNYGVHWVRQSPGKGLEWLGVIWRDGNTDYNAAFMSRLSITKDNSKSQVFFEMNSLQVDDTAIYYCCRGDGYYAMGYWGQGTSVTVSS VL: DIQMTQSPASLSVSVGETVTITCRASENIYSNLAWYQQRQGRSPQLLVYAATNLADGVPSRFSGSGSGTQYSLKINSLQSEDFGNYYCQHFWGSPRTFGGGTKLEIK", "measuredEndpoint": "Kd", "endpointResult": "0.35 nM"}

I'm hoping you can list Kd for every binder here, please.
1. RXFP2 mAb 4A5 (antibody, V domains shown, heavy chain variable domain; rat IgG2b heavy chain constant region (rat IgG2b backbone, in-house construct); Recombinant in a rat IgG2b backbone; found as a mouse hybridoma clone; source: Expi293, transfected, purified (Protein G)) VH: DVQLVESGGGLVQPGGSRKLSCAASGFTFSTFGMHWVRQAPEKGLEWVAYISSGSSTIYYADTVKGRFTISRDNPKNTLFLQMTSLRSDDTAMYYCSRSYYGSAHYFDYWGQGTTLTVSS VL: DIQMTQSPASLSVSVGETVTITCRASENIYSNLAWYQQKQGKSPQLLVYVATNLADGVPSRFSGSGSGTQYSLRINNLQSEDFGNYYCQHFWGTPPTFGGGTKLEIK
2. RXFP2 mAb 4G6 (antibody, V domains shown, heavy chain variable domain; rat IgG2b heavy chain constant region (rat IgG2b backbone, in-house construct); Recombinant in a rat IgG2b backbone; found as a mouse hybridoma clone; source: Expi293, transfected, purified (Protein G)) VH: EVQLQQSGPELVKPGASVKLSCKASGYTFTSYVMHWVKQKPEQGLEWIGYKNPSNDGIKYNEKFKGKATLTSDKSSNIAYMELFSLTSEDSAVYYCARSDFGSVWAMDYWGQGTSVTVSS VL: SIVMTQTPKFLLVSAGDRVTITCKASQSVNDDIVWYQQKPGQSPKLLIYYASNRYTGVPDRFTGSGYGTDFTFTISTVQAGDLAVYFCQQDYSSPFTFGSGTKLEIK
3. RXFP2 mAb 1F2 (antibody, V domains shown, heavy chain variable domain; rat IgG2b heavy chain constant region (rat IgG2b backbone, in-house construct); Recombinant in a rat IgG2b backbone; found as a mouse hybridoma clone; source: Expi293, transfected, purified (Protein G)) VH: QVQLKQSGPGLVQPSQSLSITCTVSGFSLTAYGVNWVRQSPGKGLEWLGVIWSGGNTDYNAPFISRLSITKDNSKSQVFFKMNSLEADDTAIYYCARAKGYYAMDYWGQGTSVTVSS VL: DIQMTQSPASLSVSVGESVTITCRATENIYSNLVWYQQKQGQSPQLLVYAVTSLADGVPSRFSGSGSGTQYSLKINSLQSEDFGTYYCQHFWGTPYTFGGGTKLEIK
4. RXFP2 mAb 3G4 (antibody, V domains shown, heavy chain variable domain; rat IgG2b heavy chain constant region (rat IgG2b backbone, in-house construct); Recombinant in a rat IgG2b backbone; found as a mouse hybridoma clone; source: Expi293, transfected, purified (Protein G)) VH: QVQLKESGPGLVAPSQSLSITCTVSGFSLTSYGVSWVRQPPGKGLEWLGVIWGDGSTNYHSALISRLSISKDNSKSQVFLKLNSLQTDDTATYYCAKSLGYYAMDYWGQGTSVTVSS VL: DIQMTQSPASLSVSVGETVTITCRASENIYSNLVWYQQKQGKSPQLLVYAATNLAEGVPSRFSGSGSGTQYSLKINSLQSEDFGSYYCQHFWGPPWTFGGGTKLEIK
5. RXFP2 mAb 2D4 (antibody, V domains shown, heavy chain variable domain; rat IgG2b heavy chain constant region (rat IgG2b backbone, in-house construct); Recombinant in a rat IgG2b backbone; found as a mouse hybridoma clone; source: Expi293, transfected, purified (Protein G)) VH: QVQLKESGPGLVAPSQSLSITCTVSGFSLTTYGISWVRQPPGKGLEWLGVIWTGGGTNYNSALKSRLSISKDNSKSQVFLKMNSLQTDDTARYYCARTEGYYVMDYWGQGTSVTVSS VL: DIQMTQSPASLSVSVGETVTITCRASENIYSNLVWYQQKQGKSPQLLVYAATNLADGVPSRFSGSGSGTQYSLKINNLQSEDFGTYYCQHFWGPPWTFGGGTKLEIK
6. RXFP2 mAb 3H1 (antibody, V domains shown, heavy chain variable domain; rat IgG2b heavy chain constant region (rat IgG2b backbone, in-house construct); Recombinant in a rat IgG2b backbone; found as a mouse hybridoma clone; source: Expi293, transfected, purified (Protein G)) VH: QVQLKETGPGLVAPSQSLSITCTVSGFSLTNYGVNWVRQPPGKGLEWLVVIWSDGSTNYNSALKSRLSISKDNSKSQVFLKMNSLQTDDTAMYYCARQQGYYAMDYWGQGTSVIVSS VL: DIQMTQSPASLSVSVGETVTITCRASENIYSNLAWYQQKQGKSPQLLVYAVTNLADGVPSRFSGSGSGTQYSLKINSLQSEDFGSYYCQHFWGPPYTFGGGTKLEIK

1. 4.23 nM
2. 0.21 nM
3. 0.69 nM
4. 2.07 nM
5. 0.52 nM
6. 1.89 nM

Would you kindly share the measured Kd for RXFP2 mAb 1G1 (antibody, V domains shown, heavy chain variable domain; rat IgG2b heavy chain constant region (rat IgG2b backbone, in-house construct); Recombinant in a rat IgG2b backbone; found as a mouse hybridoma clone; source: Expi293, transfected, purified (Protein G)) VH: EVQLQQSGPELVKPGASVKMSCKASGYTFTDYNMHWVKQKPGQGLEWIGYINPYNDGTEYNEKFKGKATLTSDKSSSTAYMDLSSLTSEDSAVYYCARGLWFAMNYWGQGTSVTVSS VL: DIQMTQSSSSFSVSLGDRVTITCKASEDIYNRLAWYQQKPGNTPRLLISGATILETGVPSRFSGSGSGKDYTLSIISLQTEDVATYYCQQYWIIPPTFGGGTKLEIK ?
0.18 nM
